Below, each of the compounds is paired with its reported IC50 value.
Target: His-PKC-theta (Homo sapiens)
Construct: His; purchased Invitrogen
Test: PKC-theta Assay (384-well time resolved fluorescence, IMAP TR-FRET)
Assay type: biochemical
Details: read-out: Act. Level (IC50 in the PKC-theta Assay)
MEASURED_PARAMETER: IC50

1) CC1(C)[C@@H](O)C[C@H]1Nc1nc(NCc2cncnc2-c2ccc(F)cc2)ncc1C(F)(F)F [Cmpd 70] = < 100 nM
2) CC1(C)[C@@H](O)C[C@H]1Nc1nc(NCCc2cn[nH]c2)ncc1C#N [Cmpd 244] = 100 to 800 nM
3) CC1(C)[C@H](O)C[C@@H]1Nc1nc(NCc2c[n+]([O-])ccc2C(F)(F)F)ncc1C(F)(F)F [Cmpd 136] = 100 to 800 nM
4) CC(F)(F)COc1ncncc1CNc1ncc(C(F)(F)F)c(N[C@@H]2C[C@H](O)C2(C)C)n1 [Cmpd 13] = < 100 nM
5) CCOc1cccc(CCNc2ncc(C#N)c(N[C@@H]3CC[C@H](O)C(C)(C)C3)n2)n1 [Cmpd 257] = 800 to 2000 nM
6) CC1(C)C[C@H](Nc2nc(NCCc3n[nH]c4ccccc34)ncc2C#N)CC[C@@H]1O [Cmpd 176] = 800 to 2000 nM

---

Readings of pIC50 for the listed molecules
Target: His-PKC-theta (Homo sapiens, UniProt Q04759)
Construct: His; purchased Invitrogen
Sequence (Q04759 whole entry): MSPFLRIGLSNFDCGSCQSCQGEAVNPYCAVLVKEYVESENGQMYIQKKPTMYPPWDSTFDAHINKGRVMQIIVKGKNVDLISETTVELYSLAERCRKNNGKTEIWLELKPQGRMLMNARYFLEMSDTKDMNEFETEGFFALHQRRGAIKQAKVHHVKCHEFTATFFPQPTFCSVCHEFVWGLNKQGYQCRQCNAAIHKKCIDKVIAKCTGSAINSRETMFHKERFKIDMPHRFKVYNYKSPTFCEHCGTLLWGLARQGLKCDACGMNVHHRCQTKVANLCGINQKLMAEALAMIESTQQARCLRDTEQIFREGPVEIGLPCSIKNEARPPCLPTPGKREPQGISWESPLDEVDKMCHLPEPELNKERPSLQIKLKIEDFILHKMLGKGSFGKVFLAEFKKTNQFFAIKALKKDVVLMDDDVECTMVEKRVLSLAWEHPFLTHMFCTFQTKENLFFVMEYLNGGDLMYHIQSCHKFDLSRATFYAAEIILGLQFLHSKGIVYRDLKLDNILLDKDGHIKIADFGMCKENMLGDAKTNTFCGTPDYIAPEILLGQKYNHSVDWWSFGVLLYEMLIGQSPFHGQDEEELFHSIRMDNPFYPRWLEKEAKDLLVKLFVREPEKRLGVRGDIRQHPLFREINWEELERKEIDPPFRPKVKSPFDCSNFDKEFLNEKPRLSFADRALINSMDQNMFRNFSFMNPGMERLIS
Assay: PKC-theta Assay (384-well time resolved fluorescence, IMAP TR-FRET)
Format: biochemical
Settings: read-out: Act. Level (IC50 in the PKC-theta Assay)
pIC50: −log10 of the molar value.
MEASURED_PARAMETER: pIC50

1) N#Cc1cnc(NCCc2c[nH]c3cc(F)ccc23)nc1N[C@H]1CC[C@@H](O)CC1 = 5.70 to 6.10
2) Cc1cccc(Oc2ncncc2CNc2ncc(C#N)c(N[C@H]3CC[C@@](C)(O)CC3)n2)c1 = > 7.00
3) COc1cccc2[nH]cc(CCNc3ncc(C#N)c(N[C@@H]4CC[C@H](O)C(C)(C)C4)n3)c12 = 6.10 to 7.00
4) N#Cc1cnc(NCc2cnccc2C(F)(F)F)nc1NC1CC(O)C1 (centres unmarked) = > 7.00
5) Cc1cnccc1CCNc1ncc(C#N)c(N[C@H]2CC[C@@H](O)CC2)n1 = 5.00 to 5.70
6) Cc1ccc(Oc2ncncc2CNc2ncc(C(F)(F)F)c(N[C@H]3CC[C@@H](O)CC3)n2)cc1 = > 7.00
7) COc1cccc2c(CCNc3ncc(C#N)c(N[C@@H]4CC[C@H](O)C(C)(C)C4)n3)c[nH]c12 = 6.10 to 7.00
8) CCc1ncncc1CNc1ncc(C#N)c(NC2CC(C)(O)C2(C)C)n1 (centres unmarked) [Cmpd 65] = > 7.00
9) N#Cc1cnc(NCc2cnccc2C(F)(F)F)nc1N[C@H]1CC[C@@H](O)CC1 = > 7.00
10) Cc1cc(CCNc2ncc(C#N)c(N[C@H]3CC[C@@H](C(N)=O)CC3)n2)ncn1 = 5.00 to 5.70
11) CC1(C)C[C@H](Nc2nc(NCCc3c[nH]c4cc(F)ccc34)ncc2C#N)CC[C@@H]1O = > 7.00

---

Molecular target: His-PKC-theta (Homo sapiens)
Construct: His; purchased Invitrogen
Assay: PKC-theta Assay (384-well time resolved fluorescence, IMAP TR-FRET)
Format: biochemical
Conditions: read-out: Act. Level (IC50 in the PKC-theta Assay)
Method: PKC-theta Assay. A 384-well time resolved fluorescence assay was used to monitor PKC-theta activity. The PKC-theta assay was run in the following assay buffer: 50 mM HEPES pH 7.6, 10 mM MgCl2, 1 mM DTT, 0.01% Triton X-100, 0.01% BSA and 0.1 mM EDTA. […] The assay plates were then incubated overnight at room temperature and read on a Perkin-Elmer Envision Reader.
pIC50: −log10 of the molar value.
MEASURED_PARAMETER: pIC50

1. COc1ncncc1CNc1ncc(C(F)(F)F)c(N[C@@H]2C[C@H](O)C2(C)C)n1 [Cmpd 62] = > 7.00
2. CC1(C)[C@H](O)C[C@@H]1Nc1nc(NCc2cncnc2OCCC(F)(F)F)ncc1C(F)(F)F [Cmpd 83] = > 7.00
3. CC(F)(F)COc1ncncc1CNc1ncc(C#N)c(N[C@@H]2C[C@H](O)C2(C)C)n1 [Cmpd 16] = > 7.00
4. O[C@H]1C[C@H](Nc2nc(NCc3cnccc3C(F)(F)F)ncc2C(F)(F)F)C1 [Cmpd 94] = 6.10 to 7.00
5. Cc1cc(C)n(CCNc2ncc(C#N)c(N[C@@H]3CC[C@H](O)C(C)(C)C3)n2)n1 [Cmpd 198] = 5.00 to 5.70
6. CC1(C)C[C@H](Nc2nc(NCCc3cncc(C(F)(F)F)c3)ncc2C#N)CC[C@@H]1O [Cmpd 271] = 5.70 to 6.10
7. CC1(C)[C@@H](O)C[C@H]1Nc1nc(NCc2cncnc2OCC(F)F)ncc1C(F)(F)F [Cmpd 7] = > 7.00
8. CC1(C)C[C@H](Nc2nc(NCCc3nc4ccccc4o3)ncc2C#N)CC[C@@H]1O [Cmpd 205] = 5.00 to 5.70
9. C[C@]1(O)CC[C@@H](Nc2nc(NCc3cnccc3C(F)(F)F)ncc2C#N)CC1 [Cmpd 71] = > 7.00
10. Cc1ccc2c(CCNc3ncc(C#N)c(N[C@@H]4CC[C@H](O)C(C)(C)C4)n3)c[nH]c2c1 [Cmpd 174] = 5.70 to 6.10
11. CC1(C)C[C@H](Nc2nc(NCCn3ccnc3)ncc2C#N)CC[C@@H]1O [Cmpd 221] = 5.00 to 5.70
12. CNC(=O)[C@H]1C[C@@H](Nc2nc(NCCc3c[nH]c4ccccc34)ncc2C#N)C1 [Cmpd 289] = 5.70 to 6.10
13. COc1cncc(CCNc2ncc(C#N)c(N[C@@H]3CC[C@H](O)C(C)(C)C3)n2)c1 [Cmpd 329] = 6.10 to 7.00
14. CCOc1ncncc1CNc1ncc(C(F)(F)F)c(N[C@@H]2C[C@H](O)C2(C)C)n1 [Cmpd 57] = > 7.00
15. CC1(C)[C@@H](O)C[C@H]1Nc1nc(NCCc2ccncc2)ncc1C#N [Cmpd 186] = 5.70 to 6.10
16. CC1(C)[C@@H](Nc2nc(NCCC3C(=O)Nc4ccccc43)ncc2C#N)CCC[C@@H]1O (stereo partly drawn) [Cmpd 305] = 6.10 to 7.00
17. N#Cc1cnc(NCCC2C(=O)Nc3ccccc32)nc1N[C@H]1CC[C@@H](C(N)=O)CC1 (stereo partly drawn) [Cmpd 179] = > 7.00
18. CC1(C)C[C@H](Nc2nc(NCCc3cc(C(F)(F)F)ccn3)ncc2C#N)CC[C@@H]1O [Cmpd 326] = 6.10 to 7.00
19. CC1(C)[C@H](O)CCC[C@H]1Nc1nc(NCCC2C(=O)Nc3ccccc32)ncc1C#N (stereo partly drawn) [Cmpd 306] = 6.10 to 7.00
20. CC1(C)C[C@H](Nc2nc(NCCn3cccn3)ncc2C#N)CC[C@@H]1O [Cmpd 211] = 5.00 to 5.70
21. Cc1[nH]c2ccc(C#N)cc2c1CCNc1ncc(C#N)c(N[C@H]2CC[C@@H](O)CC2)n1 [Cmpd 148] = 5.00 to 5.70
22. N#Cc1cnc(NCc2cnccc2C(F)(F)F)nc1N[C@H]1C[C@H](O)C1 [Cmpd 108] = 6.10 to 7.00
23. CCc1ccc2c(c1)C(CCNc1ncc(C#N)c(N[C@@H]3C[C@H](O)C3(C)C)n1)C(=O)N2 (stereo partly drawn) [Cmpd 261] = > 7.00
24. CC(F)(F)COc1ncncc1CNc1ncc(C#N)c(N[C@H]2CC3(C2)C[C@](C)(O)C3)n1 (stereo partly drawn) [Cmpd 294] = 6.10 to 7.00

---

Measured pIC50 accompanies every entry in the list below.
Target: His-PKC-theta (Homo sapiens)
Construct: His; purchased Invitrogen
Assay: PKC-theta Assay (384-well time resolved fluorescence, IMAP TR-FRET)
Assay type: biochemical
Conditions: read-out: Act. Level (IC50 in the PKC-theta Assay)
pIC50: −log10 of the molar value.
MEASURED_PARAMETER: pIC50

1) CC1(C)C[C@H](Nc2nc(NCCc3ccn[nH]3)ncc2C#N)CC[C@@H]1O = 5.70 to 6.10
2) CC1(C)[C@@H](O)C[C@H]1Nc1nc(NCCc2cc3cc(C#N)ccc3[nH]2)ncc1C#N = 6.10 to 7.00
3) COc1ccc2c(CCNc3ncc(C#N)c(N[C@H]4CC[C@@H](O)CC4)n3)c[nH]c2c1 = 5.70 to 6.10
4) CC1(C)[C@@H](O)CCC[C@H]1Nc1nc(NCCC2C(=O)Nc3ccccc32)ncc1C#N (some centres unmarked) = 6.10 to 7.00
5) CC1(C)[C@H](O)C[C@H]1Nc1nc(NCc2cncnc2-c2ccc(F)cc2)ncc1C#N = 6.10 to 7.00
6) Cc1ccc(Oc2ncncc2CNc2ncc(C#N)c(N[C@H]3CC[C@@H](O)CC3)n2)cc1 = > 7.00
7) CC1(C)C[C@H](Nc2nc(NCCn3ccc(-c4ccccc4)n3)ncc2C#N)CC[C@@H]1O = 5.00 to 5.70
8) CC1(C)[C@@H](O)C[C@H]1Nc1nc(NCCc2ccccn2)ncc1C#N = 5.00 to 5.70
9) CC(C)(F)c1ncncc1CNc1ncc(C#N)c(N[C@@H]2CC[C@H](O)C(C)(C)C2)n1 = > 7.00
10) CC1(C)C[C@H](Nc2nc(NCCc3cnoc3)ncc2C#N)CC[C@@H]1O = 5.70 to 6.10
11) CC(F)(F)COc1ncncc1CNc1ncc(C#N)c(N[C@H]2CCC[C@H](O)C2(C)C)n1 = 6.10 to 7.00
12) CC1(C)C[C@H](Nc2nc(NCCn3ccc4ccccc43)ncc2C#N)CC[C@@H]1O = 5.00 to 5.70
13) CC(C)(O)[C@H]1CC[C@H](Nc2nc(NCc3cnccc3C(F)(F)F)ncc2C#N)CC1 = 6.10 to 7.00
14) CC1(C)C[C@H](Nc2nc(NCc3cncnc3C(F)(F)F)ncc2C(F)(F)F)CC[C@@H]1O = > 7.00
15) CC1(C)[C@@H](O)C[C@H]1Nc1nc(NCCc2ccco2)ncc1C#N = 5.70 to 6.10
16) CC1(C)C[C@H](Nc2nc(NCc3cncnc3C(F)(F)F)ncc2C#N)CC[C@H]1O = 6.10 to 7.00
17) CC1(C)[C@@H](O)C[C@H]1Nc1nc(NCc2cncnc2OCCC(F)(F)F)ncc1C(F)(F)F = > 7.00
18) Cc1[nH]c2c(F)cc(F)cc2c1CCNc1ncc(C#N)c(N[C@@H]2CC[C@H](O)C(C)(C)C2)n1 = 6.10 to 7.00
19) CC1(C)C[C@H](Nc2nc(NCCc3cccs3)ncc2C#N)CC[C@@H]1O = 6.10 to 7.00
20) N#Cc1cnc(NCCc2c[nH]c3ccc(F)cc23)nc1N[C@H]1CC[C@@H](C(N)=O)CC1 = > 7.00
21) Cc1cc(C(F)(F)F)c(CNc2ncc(C#N)c(N[C@H]3CC[C@@](C)(O)CC3)n2)c[n+]1[O-] = 5.70 to 6.10
22) CC1(C)C[C@H](Nc2nc(NCCn3cccc3)ncc2C#N)CC[C@@H]1O = 6.10 to 7.00
23) CC1(C)C(O)C[C@H]1Nc1nc(NCCc2cnccn2)ncc1C#N (some centres unmarked) = 5.00 to 5.70
24) COc1cncc(CCNc2ncc(C#N)c(N[C@H]3CC[C@@H](O)CC3)n2)c1 = 5.00 to 5.70
25) CC1(C)C(O)C[C@H]1Nc1nc(NCCc2cccnc2)ncc1C#N (some centres unmarked) = 5.70 to 6.10
26) CCOc1cccc(CCNc2ncc(C#N)c(N[C@@H]3C[C@H](O)C3(C)C)n2)n1 = 5.70 to 6.10
